System: Pasteurella multocida 17E
Assay: MIC, broth-dilution microtiter test, Pasteurella multocida 17E
Assay type: cell-based
Experimental Context: Pasteurella multocida, 17E
Measure Name: MIC

For the compound CCC1OC(=O)CC(O)C(C)C(OC2OC(C)C(OC3CC(C)(O)C(O)C(C)O3)C(N(C)C)C2O)C(CCN2C(=O)c3ccccc3C2=O)CC(C)C(=O)C=CC(C)=CC1COC1OC(C)C(O)C(OC)C1OC (stereo not drawn) , what MIC is on record?
> 50 µg/mL

For the compound CCC1OC(=O)CC(O)C(C)C(OC2OC(C)C(OC3CC(C)(O)C(O)C(C)O3)C(N(C)C)C2O)C(CCOC(=O)c2nn(CC)c3cc4c(cc3c2=O)OCO4)CC(C)C(=O)C=CC(C)=CC1COC1OC(C)C(O)C(OC)C1OC (stereo not drawn) , what MIC is on record?
> 50 µg/mL

For the compound CCC1OC(=O)CC(O)C(C)C(OC2OC(C)C(OC3CC(C)(O)C(O)C(C)O3)C(N(C)C)C2O)C(C)CC(C)C(=O)C=CC(C)=CC1COC1OC(C)C(O)C(O)C1OC (stereo not drawn) , what MIC is on record?
> 50 µg/mL

The origin of these recorded values is patent US4443436A.
